# System: rabbit serum obtained by immunizing a rabbit with the SARS-CoV strain Frankfurt 1
# Assay type: binding
# Parameters: unit not given here
assay.endpoint: Binding of a rabbit serum to linear peptides
Answers are plain numbers.

[[record]]
ordered_residues = "HNYDYCIPYNSVTDT"
endpoint_value = 0.1

[[record]]
ordered_residues = "YMAISPKFTTSLSLH"
endpoint_value = 0.3

[[record]]
ordered_residues = "NPAMDPIYDEPTTTT"
endpoint_value = 0.1

[[record]]
ordered_residues = "ACLCKHKKVSTNLCT"
endpoint_value = 0.3


Dear colleague, could you send me Binding of a rabbit serum to linear peptides for each of the items below? Thanks.
1. TLVLKMLHSSSLTSL
2. NIVNVSLVKPTVYVY
3. VSQIQLSLLKVTAFQ
4. RLLACLCKHKKVSTN
5. DPIYDEPTTTTSVPL
6. VLKTMSLYMAISPKF
7. QLSLLKVTAFQHQNS

# output
[0.2, 0.5, 0.6, 0.3, 0.1, 0.3, 0.6]

Take each entry in turn and give its Binding of a rabbit serum to linear peptides.
1. VVVHGYFTEVYYQLE
2. KIDNASPASTVHATA
3. HLLLVAAGMEAQFLY
4. VIGVAFLAVFQSATK

# output
1: 0.1; 2: 0.2; 3: 0.5; 4: 0.1

Dear colleague, could you send me Binding of a rabbit serum to linear peptides for each of the items below? Thanks.
1. IYFLQCINACRIIMR
2. VTAFQHQNSKKTTKL
3. FFIFNKLVKDPPNVQ
4. SITAQPVKIDNASPA
5. STPKLKEDYQIGGYS
6. AYCCNIVNVSLVKPT

# output
0.5
0.6
0.1
0.1
0.1
0.3

Could I get Binding of a rabbit serum to linear peptides for every one of these entries?
1. LYMAISPKFTTSLSL
2. LYKGFQFICNLLLLF
3. FVCWHTHNYDYCIPY
4. CWKCKSKNPLLYDAN
5. LTSLLKTHRMCKYTQ
6. LVKDPPNVQIHTIDG
7. SGVANPAMDPIYDEP

# output
[0.3, 0.2, 0.1, 0.1, 0.3, 0.1, 1.1]

Give Binding of a rabbit serum to linear peptides for each listed item.
1. GISTPKLKEDYQIGG
2. TVHATATIPLQASLP
3. GFQFIGNLLLLFVTI
4. LKVTAFQHQNSKKTT
5. LVKPTVYVYSRVKNL
6. LLYDANYFVCWHTHN
7. DYVVVHGYFTEVYYQ
8. QIHTIDGSSGVANPA

# output
1. 0.1
2. 0.4
3. 0.9
4. 0.6
5. 0.6
6. 0.1
7. 0.1
8. 0.1

Give one value of Binding of a rabbit serum to linear peptides per listed sequence.
1. PPNVQIHTIDGSSGV
2. NPLLYDANYFVCWHT

# output
0.1
0.2
